- Test Description: Immunostimulatory activity in C57BL/6 mouse BMDC assessed as increase in mean fluorescence intensity of MHC class2 expression at 10 ug relative to untreated control
- Type: functional
Experimental Readout: fold change (FC)
Numbers only.

Below: 6 compounds and their reported fold change (FC).
Chemical String | Experimental Readout | Observed Measurement
CC1(C)CC[C@]2(C(=O)O[C@H]3O[C@H](CO)[C@@H](O)[C@H](O)[C@@H]3O[C@H]3O[C@H](CO)[C@@H](O)[C@H](O)[C@@H]3O[C@H]3O[C@H](CO)[C@@H](O)[C@H](O)[C@@H]3O)CC[C@]3(C)C(=CC[C@@H]4[C@@]5(C)CC[C@H](O[C@H]6O[C@H](CO)[C@@H](O)[C@H](O)[C@@H]6O[C@H]6O[C@H](CO)[C@@H](O)[C@H](O)[C@@H]6O[C@H]6O[C@H](CO)[C@@H](O)[C@H](O)[C@@H]6O)C(C)(C)[C@@H]5CC[C@]43C)[C@@H]2C1 | fold change (FC) | 1
COC(=O)[C@H]1O[C@@H](O[C@H]2CC[C@]3(C)[C@H]4C(=O)C=C5[C@@H]6C[C@@](C)(C(=O)O)CC[C@]6(C)CC[C@@]5(C)[C@]4(C)CC[C@H]3C2(C)C)[C@H](O[C@@H]2O[C@H](C(=O)O)[C@@H](O)[C@H](O)[C@H]2O)[C@@H](O)[C@@H]1O | fold change (FC) | 1.5
COC(=O)[C@H]1O[C@@H](O[C@H]2[C@H](O[C@H]3CC[C@]4(C)[C@H]5C(=O)C=C6[C@@H]7C[C@@](C)(C(=O)O)CC[C@]7(C)CC[C@@]6(C)[C@]5(C)CC[C@H]4C3(C)C)O[C@H](C(=O)OC)[C@@H](O)[C@@H]2O)[C@H](O)[C@@H](O)[C@@H]1O | fold change (FC) | 1.1
CC1(C)CC[C@]2(C(=O)O)CC[C@]3(C)C(=CC[C@@H]4[C@@]5(C)CC[C@H](O[C@H]6O[C@H](CO)[C@@H](O)[C@H](O)[C@@H]6O[C@H]6O[C@H](CO)[C@@H](O)[C@H](O)[C@@H]6O)C(C)(C)[C@@H]5CC[C@]43C)[C@@H]2C1 | fold change (FC) | 1.6
COC(=O)[C@H]1O[C@@H](O[C@H]2[C@H](O[C@H]3CC[C@]4(C)[C@H]5C(=O)C=C6[C@@H]7C[C@@](C)(C(=O)O)CC[C@]7(C)CC[C@@]6(C)[C@]5(C)CC[C@H]4C3(C)C)O[C@H](C(=O)O)[C@@H](O)[C@@H]2O)[C@H](O)[C@@H](O)[C@@H]1O | fold change (FC) | 1.4
CC1(C)CC[C@]2(C(=O)O)CC[C@]3(C)C(=CC[C@@H]4[C@@]5(C)CC[C@H](O[C@H]6O[C@H](CO)[C@@H](O)[C@H](O)[C@@H]6O[C@H]6O[C@H](CO)[C@@H](O)[C@H](O)[C@@H]6O[C@H]6O[C@H](CO)[C@@H](O)[C@H](O)[C@@H]6O)C(C)(C)[C@@H]5CC[C@]43C)[C@@H]2C1 | fold change (FC) | 1.1

Lab note: next compound to report on.
INPUT: Which fold change (FC) reading was recorded for the compound CC1(C)CC[C@]2(C(=O)O[C@H]3O[C@H](CO[C@H]4O[C@H](CO)[C@@H](O)[C@H](O)[C@@H]4O)[C@@H](O)[C@H](O[C@H]4O[C@H](CO)[C@@H](O)[C@H](O)[C@@H]4O)[C@@H]3O)CC[C@]3(C)C(=CC[C@@H]4[C@@]5(C)CC[C@H](O[C@H]6O[C@H](CO[C@H]7O[C@H](CO)[C@@H](O)[C@H](O)[C@@H]7O)[C@@H](O)[C@H](O[C@H]7O[C@H](CO)[C@@H](O)[C@H](O)[C@@H]7O)[C@@H]6O)C(C)(C)[C@@H]5CC[C@]43C)[C@@H]2C1 ?
OUTPUT: 1.3
